System Tested: Protein arginine N-methyltransferase 8 (Homo sapiens)
Assay Overview: Selectivity interaction (Scintillation proximity assays) EUB0000255b PRMT8
pIC50: −log10 of the molar value.
Assay Endpoint: pIC50

[[record]]
chemical_string = "COCCN1CCC(c2cc(CN(C)C(=O)c3cccc(Oc4ccccc4)c3)ccn2)CC1"
system_tested = "Protein arginine N-methyltransferase 8 (Homo sapiens)"
test_result = "< 5.00"


---

System Tested: Receptor tyrosine-protein kinase erbB-4 (Homo sapiens, UniProt Q15303)
Assay Overview: Selectivity interaction (Kinase panel (Invitrogen, enzymatic assay)) EUB0000623aCl ERBB4
Assay Endpoint: IC50

[[record]]
chemical_string = "CC(C)(C)c1ccc(C(=O)Nc2cn3cc(-n4ccnc4)ccc3n2)cc1"
test_result = "> 20 µM"


---

System Tested: Dual specificity protein kinase CLK2 (Homo sapiens, UniProt P49760)
Sequence (P49760 whole entry): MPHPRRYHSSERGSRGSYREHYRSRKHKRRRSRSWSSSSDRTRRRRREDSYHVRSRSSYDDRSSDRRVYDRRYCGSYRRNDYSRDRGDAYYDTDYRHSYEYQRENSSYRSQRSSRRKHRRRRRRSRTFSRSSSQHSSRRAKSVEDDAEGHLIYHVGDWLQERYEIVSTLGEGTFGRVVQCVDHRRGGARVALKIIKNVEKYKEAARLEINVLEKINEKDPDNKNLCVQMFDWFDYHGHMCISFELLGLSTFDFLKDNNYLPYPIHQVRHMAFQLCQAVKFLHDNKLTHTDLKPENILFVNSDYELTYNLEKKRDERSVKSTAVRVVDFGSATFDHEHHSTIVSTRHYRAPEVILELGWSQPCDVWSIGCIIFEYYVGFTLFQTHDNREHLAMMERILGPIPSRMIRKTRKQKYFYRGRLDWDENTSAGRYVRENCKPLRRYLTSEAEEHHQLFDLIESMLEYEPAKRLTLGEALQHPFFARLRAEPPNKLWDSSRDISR
pIC50: −log10 of the molar value.
Assay Endpoint: pIC50

[[record]]
chemical_string = "CN(c1ncccc1CNc1ccnc(-c2nc3c(F)c(Cl)ccc3[nH]2)n1)S(C)(=O)=O"
assay_endpoint = "pIC50"
test_result = "< 5.00"


---

System Tested: Mitogen-activated protein kinase 14 (Homo sapiens)
Sequence (Q16539 whole entry): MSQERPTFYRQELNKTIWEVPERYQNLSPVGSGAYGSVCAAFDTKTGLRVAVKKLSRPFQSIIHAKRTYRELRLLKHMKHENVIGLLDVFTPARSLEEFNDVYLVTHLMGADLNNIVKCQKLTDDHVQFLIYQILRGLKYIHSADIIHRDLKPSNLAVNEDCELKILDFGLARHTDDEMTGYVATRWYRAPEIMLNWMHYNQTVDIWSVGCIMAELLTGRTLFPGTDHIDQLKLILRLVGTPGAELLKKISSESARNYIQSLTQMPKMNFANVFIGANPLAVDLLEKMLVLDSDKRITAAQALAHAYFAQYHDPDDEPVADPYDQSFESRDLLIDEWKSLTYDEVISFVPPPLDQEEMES
Assay Overview: Selectivity interaction (Enzymatic assay) EUB0001199aCl MAPK14
Assay Endpoint: IC50 (nM)

[[record]]
chemical_string = "CN1Cc2nccc(-c3cn(C)nc3-c3ccc(F)cc3)c2C1=O"
assay_endpoint = "IC50"
test_result = 861


---

System Tested: UniProt:O14744
Assay Overview: Selectivity interaction (Western blot assay (PRMT5 dependent SmB symmetric arginine dimethylation)) EUB0000236b PRMT5
Assay Endpoint: EC50

[[record]]
chemical_string = "CC1=C(C)C(=O)C(C(C)(C)CC(=O)N(CCCCSC[C@H]2O[C@@H](n3cnc4c(N)ncnc43)[C@@H]3OC(C)(C)O[C@@H]32)Cc2cccc(-c3ccc(Cl)cc3)c2)=C(C)C1=O"
system_tested = "UniProt:O14744"
assay_endpoint = "EC50"
test_result = "> 5 nM"


---

System Tested: Leucine-rich repeat serine/threonine-protein kinase 2 (Homo sapiens, UniProt Q5S007)
Assay Overview: Selectivity interaction (Enzymatic assay) EUB0001632a LRRK2
pIC50: −log10 of the molar value.
Assay Endpoint: pIC50

[[record]]
chemical_string = "Cn1cc(-n2cnc3c(NCc4nc5cc(Cl)c(Cl)cc5[nH]4)nc(N4CCOCC4)nc32)cn1"
assay_endpoint = "pIC50"
test_result = "< 5.00"


---

System Tested: UniProt O75469
Sequence (O75469 whole entry): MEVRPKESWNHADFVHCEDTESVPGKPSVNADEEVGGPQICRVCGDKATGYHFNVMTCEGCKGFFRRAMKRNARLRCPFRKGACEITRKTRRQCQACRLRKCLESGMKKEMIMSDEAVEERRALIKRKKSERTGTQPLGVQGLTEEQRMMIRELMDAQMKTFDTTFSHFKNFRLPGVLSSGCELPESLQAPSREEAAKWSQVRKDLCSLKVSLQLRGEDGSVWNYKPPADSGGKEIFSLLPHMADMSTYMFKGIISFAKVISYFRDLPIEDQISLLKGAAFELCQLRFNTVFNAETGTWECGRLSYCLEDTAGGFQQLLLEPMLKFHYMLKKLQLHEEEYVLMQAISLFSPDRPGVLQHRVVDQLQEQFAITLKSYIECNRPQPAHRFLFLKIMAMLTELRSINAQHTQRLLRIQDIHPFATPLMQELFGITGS
Assay Overview: Selectivity interaction (Pregnane X Receptor (PXR, SXR) binding, human recombinant ) EUB0000877a NR1I2
pIC50: −log10 of the molar value.
Assay Endpoint: pIC50

[[record]]
compound = "CCC(=O)N1CC[C@H](Nc2ncnc3c2CN(c2cnc(OC)c(C(F)(F)F)c2)CC3)C1 [LENIOLISIB]"
test_result = "< 4.52"


---

System Tested: Receptor-type tyrosine-protein kinase FLT3 (Homo sapiens, UniProt P36888)
Assay Overview: Selectivity interaction (NanoBRET assay (HEK293T cells)) EUB0001559a FLT3
pEC50: −log10 of the molar value.
Assay Endpoint: pEC50

[[record]]
chemical_string = "CN(C(=O)c1cnn2cccnc12)c1cc2c(cc1N1CCOCC1)C(=O)N(C[C@@H](F)C(C)(C)O)C2"
system_tested = "Receptor-type tyrosine-protein kinase FLT3 (Homo sapiens, UniProt P36888)"
test_result = 2.44


---

System Tested: Platelet-derived growth factor receptor alpha (Homo sapiens, UniProt P16234)
Assay Overview: Selectivity interaction (Kinase panel (33PanQinase(R) Activity Assay)) EUB0000877a PDGFRA
pIC50: −log10 of the molar value.
Assay Endpoint: pIC50

[[record]]
chemical_string = "CCC(=O)N1CC[C@H](Nc2ncnc3c2CN(c2cnc(OC)c(C(F)(F)F)c2)CC3)C1"
assay_endpoint = "pIC50"
test_result = "< 5.00"


---

System Tested: Cyclin-dependent kinase 4/cyclin D1 (Homo sapiens)
Assay Overview: Selectivity interaction (Competition-binding assay (DiscoverX)) EUB0001632a CDK4
Assay Endpoint: Kd

[[record]]
chemical_string = "Cn1cc(-n2cnc3c(NCc4nc5cc(Cl)c(Cl)cc5[nH]4)nc(N4CCOCC4)nc32)cn1"
test_result = "> 10 µM"


---

System Tested: UniProtKB P49759
Sequence (P49759 whole entry): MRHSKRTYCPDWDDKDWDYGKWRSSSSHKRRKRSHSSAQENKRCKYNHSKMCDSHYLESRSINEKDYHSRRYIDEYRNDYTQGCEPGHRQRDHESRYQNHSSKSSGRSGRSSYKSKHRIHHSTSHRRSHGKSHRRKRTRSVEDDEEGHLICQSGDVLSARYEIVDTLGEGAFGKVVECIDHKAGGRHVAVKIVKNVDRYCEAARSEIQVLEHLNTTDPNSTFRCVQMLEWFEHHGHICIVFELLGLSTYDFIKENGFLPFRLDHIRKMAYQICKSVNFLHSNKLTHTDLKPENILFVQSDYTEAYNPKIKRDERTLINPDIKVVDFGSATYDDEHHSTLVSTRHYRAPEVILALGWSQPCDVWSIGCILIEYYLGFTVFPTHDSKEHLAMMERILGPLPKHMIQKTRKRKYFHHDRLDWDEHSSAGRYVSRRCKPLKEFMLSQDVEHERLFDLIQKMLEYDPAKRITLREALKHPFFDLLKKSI
Assay Overview: Selectivity interaction (Radioactive assay (Reaction Biology)) EUB0001046a CLK1
pIC50: −log10 of the molar value.
Assay Endpoint: pIC50

[[record]]
chemical_string = "CN(c1ncccc1CNc1ccnc(-c2cc3cc(Cl)ccc3[nH]2)n1)S(C)(=O)=O"
assay_endpoint = "pIC50"
test_result = "< 5.00"


---

System Tested: Interleukin-1 receptor-associated kinase 4 (Homo sapiens, UniProt Q9NWZ3)
Sequence (Q9NWZ3 whole entry): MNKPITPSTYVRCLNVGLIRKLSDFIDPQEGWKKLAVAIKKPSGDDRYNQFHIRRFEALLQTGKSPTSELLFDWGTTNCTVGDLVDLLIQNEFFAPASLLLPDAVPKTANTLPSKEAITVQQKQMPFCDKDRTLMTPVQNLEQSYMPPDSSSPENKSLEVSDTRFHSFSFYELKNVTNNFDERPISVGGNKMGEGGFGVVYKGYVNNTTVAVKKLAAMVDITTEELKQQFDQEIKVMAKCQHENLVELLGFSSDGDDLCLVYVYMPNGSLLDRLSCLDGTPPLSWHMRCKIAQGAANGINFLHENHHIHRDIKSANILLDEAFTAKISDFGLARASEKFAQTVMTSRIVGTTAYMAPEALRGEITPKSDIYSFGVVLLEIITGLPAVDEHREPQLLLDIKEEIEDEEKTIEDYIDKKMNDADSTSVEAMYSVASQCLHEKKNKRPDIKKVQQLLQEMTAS
Assay Overview: Selectivity interaction (Enzymatic assay) EUB0001550a IRAK4
Assay Endpoint: IC50 (µM)

[[record]]
chemical_string = "CN(C)CC#Cc1ccc2[nH]c3c(c2c1)-c1nc(N)ncc1CCC3"
system_tested = "Interleukin-1 receptor-associated kinase 4 (Homo sapiens, UniProt Q9NWZ3)"
assay_endpoint = "IC50"
unit_descriptor = "µM"
test_result = 4.5


---

Assay Overview: Selectivity interaction (Kinase panel (cellular selectivity, Bright-Glo proliferation assay in BaF3 Cell line, Promega)) EUB0000678a ALK
Assay Endpoint: IC50 (µM)

[[record]]
chemical_string = "CCN1CCN(c2ccc(Nc3cc(N(C)C(=O)Nc4c(Cl)c(OC)cc(OC)c4Cl)ncn3)cc2)CC1"
unit_descriptor = "µM"
test_result = 3.08


---

System Tested: Mitogen-activated protein kinase 14 (Homo sapiens)
Assay Overview: Selectivity interaction (Kinase panel (Invitrogen, enzymatic assay)) EUB0000623aCl MAPK14
pIC50: −log10 of the molar value.
Assay Endpoint: pIC50

[[record]]
chemical_string = "CC(C)(C)c1ccc(C(=O)Nc2cn3cc(-n4ccnc4)ccc3n2)cc1"
test_result = "< 5.00"


---

System Tested: cAMP-dependent protein kinase catalytic subunit alpha (Homo sapiens)
Assay Overview: Selectivity interaction (Enzyme panel (AstraZeneca, AlphaScreen, functional assay)) EUB0000621a PRKACA
Assay Endpoint: IC50

[[record]]
compound = "Cc1cc([C@@H](C)Nc2ccccc2C(=O)O)c2nc(N3CCOCC3)cc(=O)n2c1 [AZD-6482]"
system_tested = "cAMP-dependent protein kinase catalytic subunit alpha (Homo sapiens)"
test_result = "> 999 µM"


---

System Tested: Serine/threonine-protein kinase pim-2 (Homo sapiens, UniProt Q9P1W9)
Sequence (Q9P1W9 whole entry): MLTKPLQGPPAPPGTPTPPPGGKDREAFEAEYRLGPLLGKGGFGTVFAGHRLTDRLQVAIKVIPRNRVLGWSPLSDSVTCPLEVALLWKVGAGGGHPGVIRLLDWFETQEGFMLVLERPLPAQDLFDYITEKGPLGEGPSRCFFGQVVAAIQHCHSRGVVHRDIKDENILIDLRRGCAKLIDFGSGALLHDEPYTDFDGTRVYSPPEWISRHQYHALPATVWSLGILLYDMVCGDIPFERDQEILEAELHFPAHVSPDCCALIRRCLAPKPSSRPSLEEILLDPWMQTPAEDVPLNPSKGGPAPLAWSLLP
Assay Overview: Selectivity interaction (Enzymatic assay (Eurofins)) EUB0001049a PIM2
pIC50: −log10 of the molar value.
Assay Endpoint: pIC50

[[record]]
chemical_string = "COc1cc(Nc2nc(C)cc(-c3cnn4nc(OC)ccc34)n2)cc(C(F)(F)F)c1"
assay_endpoint = "pIC50"
test_result = "< 5.00"


---

System Tested: Dual specificity tyrosine-phosphorylation-regulated kinase 1B (Homo sapiens, UniProt Q9Y463)
Assay Overview: Selectivity interaction (Enzymatic assay) EUB0001550a DYRK1B
Assay Endpoint: IC50 (nM)

[[record]]
chemical_string = "CN(C)CC#Cc1ccc2[nH]c3c(c2c1)-c1nc(N)ncc1CCC3"
test_result = 380


---

System Tested: Chromatin remodeling regulator CECR2 (Homo sapiens, UniProt Q9BXF3)
Sequence (Q9BXF3 whole entry): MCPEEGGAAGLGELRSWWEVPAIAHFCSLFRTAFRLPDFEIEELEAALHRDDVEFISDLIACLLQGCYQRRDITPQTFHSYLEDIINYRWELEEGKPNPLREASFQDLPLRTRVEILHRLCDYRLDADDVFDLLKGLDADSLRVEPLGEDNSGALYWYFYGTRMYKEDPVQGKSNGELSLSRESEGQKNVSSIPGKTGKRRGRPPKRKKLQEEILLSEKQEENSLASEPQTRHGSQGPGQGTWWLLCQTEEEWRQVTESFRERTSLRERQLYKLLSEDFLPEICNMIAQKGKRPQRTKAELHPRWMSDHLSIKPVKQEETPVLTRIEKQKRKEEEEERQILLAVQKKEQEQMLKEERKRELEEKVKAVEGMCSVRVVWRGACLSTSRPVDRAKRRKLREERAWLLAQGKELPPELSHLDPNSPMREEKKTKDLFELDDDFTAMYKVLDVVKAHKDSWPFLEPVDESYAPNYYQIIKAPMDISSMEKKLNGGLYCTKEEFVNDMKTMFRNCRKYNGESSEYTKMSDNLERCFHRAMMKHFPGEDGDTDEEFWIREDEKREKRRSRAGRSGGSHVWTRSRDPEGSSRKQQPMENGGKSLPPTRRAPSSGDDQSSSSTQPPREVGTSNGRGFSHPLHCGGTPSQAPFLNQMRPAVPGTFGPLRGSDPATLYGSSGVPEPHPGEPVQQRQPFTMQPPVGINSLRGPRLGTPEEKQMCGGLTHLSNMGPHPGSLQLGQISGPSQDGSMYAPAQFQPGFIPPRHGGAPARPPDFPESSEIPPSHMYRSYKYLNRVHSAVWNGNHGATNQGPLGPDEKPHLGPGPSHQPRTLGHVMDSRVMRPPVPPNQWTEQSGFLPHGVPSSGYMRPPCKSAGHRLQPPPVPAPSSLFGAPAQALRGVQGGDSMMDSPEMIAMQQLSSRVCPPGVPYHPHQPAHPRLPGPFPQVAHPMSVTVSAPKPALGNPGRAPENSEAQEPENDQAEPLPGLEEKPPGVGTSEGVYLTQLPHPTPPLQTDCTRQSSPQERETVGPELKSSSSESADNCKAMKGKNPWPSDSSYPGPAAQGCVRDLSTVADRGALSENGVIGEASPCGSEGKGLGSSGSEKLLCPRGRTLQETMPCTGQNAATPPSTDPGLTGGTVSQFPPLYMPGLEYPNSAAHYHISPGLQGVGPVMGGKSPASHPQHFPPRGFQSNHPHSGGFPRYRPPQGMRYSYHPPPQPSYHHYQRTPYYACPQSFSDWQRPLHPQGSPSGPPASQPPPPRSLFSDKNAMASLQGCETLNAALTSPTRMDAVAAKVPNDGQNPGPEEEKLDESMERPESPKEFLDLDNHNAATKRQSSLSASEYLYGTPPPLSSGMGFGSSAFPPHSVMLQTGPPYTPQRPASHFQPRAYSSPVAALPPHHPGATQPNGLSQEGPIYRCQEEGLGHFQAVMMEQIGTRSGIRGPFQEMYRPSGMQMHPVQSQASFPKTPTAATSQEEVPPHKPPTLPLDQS
Assay Overview: Selectivity interaction (BROMOscan) EUB0001074a CECR2
pIC50: −log10 of the molar value.
Assay Endpoint: pIC50

[[record]]
chemical_string = "CCc1cc2cc(NS(=O)(=O)c3ccc(C#N)cc3)ccc2n(CC)c1=O"
system_tested = "Chromatin remodeling regulator CECR2 (Homo sapiens, UniProt Q9BXF3)"
assay_endpoint = "pIC50"
test_result = "< 4.00"


---

System Tested: AP2-associated protein kinase 1 (Homo sapiens)
Assay Overview: Selectivity interaction (Kinase panel (enzymatic assay, literature)) EUB0001492b AAK1
Assay Endpoint: IC50 (nM)

[[record]]
chemical_string = "CCC(F)(F)c1cc(N2CCC(S(C)(=O)=O)CC2)nc2sc(C(N)=O)c(N)c12"
system_tested = "AP2-associated protein kinase 1 (Homo sapiens)"
test_result = 188


---

System Tested: UniProtKB P35869
Sequence (P35869 whole entry): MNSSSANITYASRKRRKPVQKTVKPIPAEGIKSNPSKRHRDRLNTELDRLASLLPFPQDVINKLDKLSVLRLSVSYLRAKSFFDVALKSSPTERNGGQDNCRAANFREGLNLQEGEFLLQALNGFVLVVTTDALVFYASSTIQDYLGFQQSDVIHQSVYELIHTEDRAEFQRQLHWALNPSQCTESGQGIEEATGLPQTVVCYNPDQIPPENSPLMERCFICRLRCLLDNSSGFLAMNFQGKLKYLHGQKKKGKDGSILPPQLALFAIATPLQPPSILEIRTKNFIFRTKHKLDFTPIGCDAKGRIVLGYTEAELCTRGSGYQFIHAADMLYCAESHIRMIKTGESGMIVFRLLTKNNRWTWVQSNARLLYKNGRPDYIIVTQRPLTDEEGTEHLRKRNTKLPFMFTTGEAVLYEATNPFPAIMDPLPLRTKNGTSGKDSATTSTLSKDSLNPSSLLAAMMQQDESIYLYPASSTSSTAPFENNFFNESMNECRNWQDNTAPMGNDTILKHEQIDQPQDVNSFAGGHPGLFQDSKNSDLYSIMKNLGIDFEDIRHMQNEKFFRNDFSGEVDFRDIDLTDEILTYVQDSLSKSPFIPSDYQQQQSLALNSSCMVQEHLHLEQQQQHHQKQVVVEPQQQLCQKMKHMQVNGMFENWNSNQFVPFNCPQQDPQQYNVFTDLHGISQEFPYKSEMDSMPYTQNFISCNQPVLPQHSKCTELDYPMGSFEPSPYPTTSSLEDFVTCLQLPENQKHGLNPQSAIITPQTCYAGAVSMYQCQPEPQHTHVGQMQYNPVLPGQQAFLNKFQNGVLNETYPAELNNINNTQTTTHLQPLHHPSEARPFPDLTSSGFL
Assay Overview: Selectivity interaction (Panel of kinases, GPCRs, ion channels and transporters (enzymatic assay)) EUB0000266bCl AHR
Assay Endpoint: XC50

[[record]]
compound = "CCn1c(-c2nc3cc(C(=O)N4CCCC(N)C4)ccc3n2C)cc2ccccc21 (stereo unspecified)"
test_result = "> 100 µM"


---

System Tested: Protein arginine N-methyltransferase 7 (Homo sapiens)
Assay Overview: Selectivity interaction (Scintillation proximity assays) EUB0000230b PRMT7
pIC50: −log10 of the molar value.
Assay Endpoint: pIC50

[[record]]
chemical_string = "CNCCN1CCC(c2cc(CN(C)C(=O)c3cccc(Oc4ccccc4)c3)ccn2)CC1"
assay_endpoint = "pIC50"
test_result = "< 5.00"


---

System Tested: Sodium-dependent serotonin transporter (Homo sapiens, UniProt P31645)
Assay Overview: Selectivity interaction (Serotonin transporter site assay, human recombinant ) EUB0000877a SLC6A4
pIC50: −log10 of the molar value.
Assay Endpoint: pIC50

[[record]]
compound = "CCC(=O)N1CC[C@H](Nc2ncnc3c2CN(c2cnc(OC)c(C(F)(F)F)c2)CC3)C1 [LENIOLISIB]"
system_tested = "Sodium-dependent serotonin transporter (Homo sapiens, UniProt P31645)"
assay_endpoint = "pIC50"
test_result = "< 4.52"

